Each entry below lists one item and its recorded TGI value.
# Test system: SN12C renal
# ASSAY_SUMMARY: NCI tumour cell line growth inhibition, 48 h
Dear colleague, please return just the value in µM, with no unit written.

Here is how some compounds turned out for TGI.
COMPOUND	REPORTED_PROPERTY	UNIT_DESCRIPTOR	ASSAY_VALUE
C/C=C/[C@@H]1O[C@@H]2COC(=O)C2=C[C@@H]1O	TGI	µM	31.4
CC(=O)CC1CCC(=O)/C=C/C(=O)OC(CC(C)=O)CCC(=O)/C=C/C(=O)O1 (configuration not stated)	TGI	µM	15.3

Please give measured TGI of the following entry: CCC(C)SC1SCC2C(=O)N(C)C3(CC3C)C(=O)OCC(NC(=O)c3nc4ccccc4cc3O)C(=O)NC(C)C(=O)N(C)C1C(=O)N(C)C1(CC1C)C(=O)OCC(NC(=O)c1nc3ccccc3cc1O)C(=O)NC(C)C(=O)N2C (configuration not stated)
9.55

====

Each entry below lists one item and its recorded TGI value.
# Tested on: SF-539 CNS
# ASSAY_SUMMARY: NCI tumour cell line growth inhibition, 48 h
Dear colleague, please return just the value in µM, with no unit written.

Here is how some compounds turned out for TGI.
In [3]: df
Out[3]:
                            smiles_notation  unit_descriptor  assay_value
0  C#Cc1cccc(Nc2nc3cc([N+](=O)[O-])ccc3nc2Nc2ccc(O)cc2)c1               µM         3.29
1  CCOC(=O)n1cc(C2=C(c3ccc(OC)c(OC)c3)COC2=O)c2ccccc21               µM        0.156

# evaluate next
Please give measured TGI of the following entry: `COc1cc(/C=C2\CN(S(=O)(=O)c3ccc(C)cc3)C/C(=C\c3cc(CN4CCCC4)c(O)c(OC)c3)C2=O)cc(CN2CCCC2)c1O`
3.1

====

# Test system: SF-268 CNS
# ASSAY_SUMMARY: NCI tumour cell line growth inhibition, 48 h
REPORTED_PROPERTY: TGI

Here is how some molecules turned out for TGI.
MOLECULE	REPORTED_PROPERTY	ASSAY_VALUE
CC1(C)[C@@H](NOCCCN)CC[C@]2(C)[C@H]3C(=O)C=C4[C@@H]5C[C@](C)(C(=O)O)CC[C@]5(C)CC[C@@]4(C)[C@]3(C)CC[C@@H]12	TGI	21.6 µM
COc1ccc(C2c3cc4c(cc3OC3(OC)COC(=O)C23)OCO4)c(OC)c1 (stereo unspecified)	TGI	> 100 µM
C(=C/CCCN1O[C@@H](CCCCCCCCc2cccnc2)[C@H]2CCC[C@H]21)/CCCCCCCCCc1cccnc1	TGI	63.7 µM
O=C(Nc1nc(=S)[nH][nH]1)C(=O)C(C(=O)c1ccc2ccccc2c1)C1OC(=O)c2ccccc21 (stereo unspecified)	TGI	> 100 µM
O=C1SC(SCc2ccccc2)=NC12CC2c1ccccc1 (stereo unspecified)	TGI	70.1 µM
COc1ccc(/C=C/COC(C)=O)cc1OC	TGI	> 100 µM
CCOC(=O)c1csc(NC(=O)CN2CCCC2)n1	TGI	> 100 µM
COC1=CC(=O)C(C2(OC(C)C)OC(=O)C(Cl)=C2Cl)=CC1=O (stereo unspecified)	TGI	> 100 µM

Please give measured TGI of the following entry: C=C(C)C12OC1[C@@]1(C)C(=CC2=O)CCC(O)[C@@H]1C (stereo partly specified)
14.7 µM

Please give measured TGI of the following entry: `O=C1OC(c2ccccc2)=N/C1=C\c1ccc([N+](=O)[O-])cc1`
> 100 µM

Please give measured TGI of the following entry: S=P1(Oc2ccccc2)NNP2(=NP(N3CC3)(N3CC3)=NP(N3CC3)(N3CC3)=N2)NN1 (stereo unspecified)
> 100 µM

Please give measured TGI of the following entry: `C=CCNC(=S)N/C=C(\C#N)C(N)=O`
> 100 µM

Please give measured TGI of the following entry: COc1cc(S(=O)(=O)Nc2ccc(-c3csc(N4C(=O)CSC4c4cccc(Oc5ccccc5)c4)n3)cc2)ccc1Cl (stereo unspecified)
> 100 µM

Please give measured TGI of the following entry: `COc1cc(-c2nc3sccn3c2-c2ccnc(NCCNS(=O)(=O)c3ccc(F)cc3)n2)ccc1F`
> 100 µM

Please give measured TGI of the following entry: `CCOC(=O)n1cc(C2=C(c3ccc(OC)c(OC)c3)COC2=O)c2ccccc21`
> 100 µM

Please give measured TGI of the following entry: CCCOc1nc(N)c2cnn(C3CCCCO3)c2n1 (stereo unspecified)
> 100 µM

Please give measured TGI of the following entry: O=S1C(=c2ccc(=C3Sc4ccccc4S3)cc2)Sc2ccccc21 (stereo unspecified)
37.3 µM

Please give measured TGI of the following entry: `CC(C)=C[C@H]1C[C@H](C)[C@H]2CC[C@H](C)c3c2c1c(C)c1ncoc31`
46 µM

Please give measured TGI of the following entry: Cc1ccc(NC2=C3CCCCC3OC2=O)cc1 (stereo unspecified)
> 100 µM

Please give measured TGI of the following entry: C[C@]12c3c4cc(NC(=O)C(=O)NCc5ccc(-c6ccccn6)nc5)cc3Oc3cc(NC(=O)C(=O)NCc5ccc(-c6ccccn6)nc5)cc(c31)OC1C=C(NC(=O)C(=O)NCc3ccc(-c5ccccn5)nc3)C=C(O4)C12 (stereo partly specified)
> 100 µM

Please give measured TGI of the following entry: `NC(=S)N/N=C1\c2cc(Cl)ccc2-c2c1cc(Cl)cc2[N+](=O)[O-]`
> 100 µM

Please give measured TGI of the following entry: `CCOC(=O)c1ccc(-c2cc(C)no2)[nH]1`
> 100 µM

Please give measured TGI of the following entry: `Fc1cc(-c2nnc3n2N=C(c2ccc(Cl)cc2)CS3)c(Cl)cc1Cl`
33.1 µM

Please give measured TGI of the following entry: `O=C(Nc1nn2c(-c3cc(C(F)(F)F)cc(C(F)(F)F)c3)nnc2s1)C1CCCC1`
> 100 µM

Please give measured TGI of the following entry: `Cc1cc(Nc2ccc(C)c(Cl)c2)n2nc(C(F)(F)F)nc2n1`
> 100 µM

Please give measured TGI of the following entry: `CN(C)C(=S)/N=c1\ssc(=S)n1C1CCCCC1`
> 100 µM

Please give measured TGI of the following entry: `Cc1nc(-c2nc(C)c(C(=O)NNC(=O)C[n+]3ccccc3)s2)sc1C(=O)NNC(=O)C[n+]1ccccc1`
> 100 µM
